- ASSAYED SYSTEM: MASP-2 CCP2-SP (Homo sapiens (Human))
- Sequence (O00187 445-686): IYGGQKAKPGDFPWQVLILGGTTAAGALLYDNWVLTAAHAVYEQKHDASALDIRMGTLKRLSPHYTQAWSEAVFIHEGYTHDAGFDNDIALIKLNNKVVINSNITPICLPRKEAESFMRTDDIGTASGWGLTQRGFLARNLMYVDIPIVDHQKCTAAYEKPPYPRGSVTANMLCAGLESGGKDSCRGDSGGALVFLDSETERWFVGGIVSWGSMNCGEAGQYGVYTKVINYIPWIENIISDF
- Sequence (O00187 364-432 partner): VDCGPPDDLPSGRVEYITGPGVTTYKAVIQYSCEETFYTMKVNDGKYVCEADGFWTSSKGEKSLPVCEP
- ASSAY TEXT: MASP-2 co-crystallization, X-ray crystallography and structure analysis (H-bonds, van der Waals contacts)
- DETAILS: Table A1 (H-Bonds); SER 657 O
Structures can show the parent of a compound that is named as a salt.

COMPOUND	ASSAYED SYSTEM	H-bond distance to MASP-2 SER 657 atom O
C[C@H](NC(=O)[C@H]1C[C@@H](c2ccccc2)CN1)C(=O)NCc1ccc(C(=N)N)cc1 [compound 1037]	MASP-2 CCP2-SP (Homo sapiens (Human))	2.85
Cc1cccc([C@H]2CN[C@@H](C(=O)N[C@@H](C)C(=O)NCc3ccc(N)nc3C)C2)c1 [compound 1257, Dihydrochloride]	MASP-2 CCP2-SP (Homo sapiens (Human))	2.86
C[C@H](NC(=O)[C@H]1C[C@H](Cc2ccccc2)CN1)C(=O)NCc1ccc(C(=N)N)cc1 [compound 1306]	MASP-2 CCP2-SP (Homo sapiens (Human))	2.87
C[C@H](NC(=O)[C@H]1C[C@H](Cc2ccccc2)CN1)C(=O)NCc1cc(Cl)ccc1-n1cnnn1 [compound 1371, Hydrochloride]	MASP-2 CCP2-SP (Homo sapiens (Human))	2.96
Cc1nc(N)ccc1CNC(=O)[C@H](C)NC(=O)[C@H]1C[C@H](Cc2ccc3ccccc3c2)CN1 [compound 1338]	MASP-2 CCP2-SP (Homo sapiens (Human))	2.93
Cc1nc(N)ccc1CNC(=O)[C@H](C)NC(=O)[C@H]1C[C@@H](c2cccc3ccccc23)CCN1 [compound 1297]	MASP-2 CCP2-SP (Homo sapiens (Human))	3.06
N=C(N)c1ccc(CNC(=O)C(CF)NC(=O)[C@H](N)CCc2ccccc2)cc1 (stereo partly shown) [compound 1050, Dihydrochloride]	MASP-2 CCP2-SP (Homo sapiens (Human))	2.86
Cc1nc(N)ccc1CNC(=O)[C@H](C)NC(=O)[C@H]1C[C@@H](Cc2ccccc2)CCN1 [compound 1353]	MASP-2 CCP2-SP (Homo sapiens (Human))	2.91
C[C@H](NC(=O)c1cc(-c2ccccc2)c[nH]1)C(=O)NCc1ccc(C(=N)N)cc1 [compound 1030]	MASP-2 CCP2-SP (Homo sapiens (Human))	2.91
C[C@H](NC(=O)[C@H]1C[C@H](c2ccccc2)CN1)C(=O)NCc1ccc(N)nc1 [compound 1012]	MASP-2 CCP2-SP (Homo sapiens (Human))	2.89
Cc1nc(N)ccc1CNC(=O)[C@H](C)NC(=O)[C@H]1C[C@H](Cc2ccccc2-c2ccccc2)CN1 [compound 1373, Di-trifluoroacetate salt]	MASP-2 CCP2-SP (Homo sapiens (Human))	2.89
N=C(N)c1ccc(CNC(=O)[C@@H]2CCN2C(=O)[C@H](NCC(=O)O)C2CCCCC2)cc1 [melagatran, reference compound]	MASP-2 CCP2-SP (Homo sapiens (Human))	2.84
CNC(=O)c1ccc2c(=O)n(Cc3ccccc3)c(=O)n(CC(=O)NCc3ccc(C(=N)N)cc3)c2c1 [compound 2018]	MASP-2 CCP2-SP (Homo sapiens (Human))	2.84
Cc1nc(N)ccc1CNC(=O)[C@H](C)NC(=O)[C@H]1C[C@H](Cc2ccc(-c3ccccc3)cc2)CN1 [compound 1351]	MASP-2 CCP2-SP (Homo sapiens (Human))	2.8
C[C@H](NC(=O)[C@H](N)CCc1ccccc1)C(=O)NCc1ccc(C(=N)N)cc1 [compound 1024]	MASP-2 CCP2-SP (Homo sapiens (Human))	2.94
C[C@H](NC(=O)[C@H](N)CCc1ccccc1)C(=O)NCc1ccc(N)nc1 [compound 1007]	MASP-2 CCP2-SP (Homo sapiens (Human))	2.88
C[C@H](NC(=O)[C@@H](CCc1ccccc1)NCCCc1ccc(O)cc1)C(=O)NCc1ccc(C(=N)N)cc1 [compound 1145]	MASP-2 CCP2-SP (Homo sapiens (Human))	2.81
C[C@H](NC(=O)C1C[C@@H](c2ccccc2)CCN1)C(=O)NCc1ccc(C(=N)N)cc1 (stereo in doubt) [compound 1063]	MASP-2 CCP2-SP (Homo sapiens (Human))	2.83
N=C(N)c1ccc(CNC(=O)[C@@H]2CCN2C(=O)[C@H](NCC(=O)O)C2Cc3ccccc3C2)cc1 [compound 1129]	MASP-2 CCP2-SP (Homo sapiens (Human))	2.92

Numbers sourced from patent US12195427B2.
